system: HEK293-OATP2B1; type: cell-based, human
Metric: pIC50
Scale for pIC50: -log10 of concentration given in mol/L; no unit attached.

## Task Requested read-out pIC50, target or system HEK293-OATP2B1, entry N.N.[Cl][Pt][Cl] [cisplatin, reference compound]
## Result 5.01

====

The compounds listed here are annotated with their pIC50.
molecular target: OCT1 (Homo sapiens); construct: expressed in transfected cells; host or cells: HEK293 (lentiviral transduction; cDNA synthesised by GenScript); assay: Uptake inhibition assay, OCT1-overexpressing HEK293 cells; format: cell-based; settings: oxindole alkaloids; substrate metformin; read-out: IC50 (95% CI of IC50)
Sequence (O15245 whole entry): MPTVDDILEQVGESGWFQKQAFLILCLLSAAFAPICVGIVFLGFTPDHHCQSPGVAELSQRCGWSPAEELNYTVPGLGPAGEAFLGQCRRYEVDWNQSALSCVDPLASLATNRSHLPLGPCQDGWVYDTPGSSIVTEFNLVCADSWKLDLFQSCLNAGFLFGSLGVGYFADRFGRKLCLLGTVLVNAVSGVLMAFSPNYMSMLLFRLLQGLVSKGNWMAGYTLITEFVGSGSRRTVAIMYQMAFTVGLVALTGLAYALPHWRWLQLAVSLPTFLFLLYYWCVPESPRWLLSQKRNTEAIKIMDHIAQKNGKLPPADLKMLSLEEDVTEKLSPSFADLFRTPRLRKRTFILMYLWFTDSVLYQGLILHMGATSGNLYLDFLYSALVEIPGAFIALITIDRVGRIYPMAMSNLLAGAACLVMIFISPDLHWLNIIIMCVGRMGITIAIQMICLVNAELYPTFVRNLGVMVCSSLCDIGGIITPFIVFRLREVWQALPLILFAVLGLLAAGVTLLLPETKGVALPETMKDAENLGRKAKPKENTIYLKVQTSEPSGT
To interpret pIC50, take it as minus log10 of a concentration measured in moles per litre.

COC(=O)C1=CO[C@@H](C)[C@@H]2CN3CC[C@@]4(C(=O)Nc5ccccc54)[C@@H]3C[C@H]12    5.55

// moving on: another record for pIC50
## Task Reported pIC50, compound COC(=O)C1=CO[C@@H](C)[C@H]2CN3CC[C@]4(C(=O)Nc5ccccc54)[C@@H]3C[C@H]12 : ____
## Result 5.15

====

target: OATP2B1 (Homo sapiens, UniProt O94956); construct: expressed in transfected cells; host or cells: HEK293 (lentiviral transduction; cDNA synthesised by GenScript); experiment: Uptake inhibition assay, OATP2B1-overexpressing HEK293 cells; assay type: cell-based; conditions: oxindole alkaloids; substrate E3S; read-out: IC50 (95% CI of IC50)
Sequence (O94956 whole entry): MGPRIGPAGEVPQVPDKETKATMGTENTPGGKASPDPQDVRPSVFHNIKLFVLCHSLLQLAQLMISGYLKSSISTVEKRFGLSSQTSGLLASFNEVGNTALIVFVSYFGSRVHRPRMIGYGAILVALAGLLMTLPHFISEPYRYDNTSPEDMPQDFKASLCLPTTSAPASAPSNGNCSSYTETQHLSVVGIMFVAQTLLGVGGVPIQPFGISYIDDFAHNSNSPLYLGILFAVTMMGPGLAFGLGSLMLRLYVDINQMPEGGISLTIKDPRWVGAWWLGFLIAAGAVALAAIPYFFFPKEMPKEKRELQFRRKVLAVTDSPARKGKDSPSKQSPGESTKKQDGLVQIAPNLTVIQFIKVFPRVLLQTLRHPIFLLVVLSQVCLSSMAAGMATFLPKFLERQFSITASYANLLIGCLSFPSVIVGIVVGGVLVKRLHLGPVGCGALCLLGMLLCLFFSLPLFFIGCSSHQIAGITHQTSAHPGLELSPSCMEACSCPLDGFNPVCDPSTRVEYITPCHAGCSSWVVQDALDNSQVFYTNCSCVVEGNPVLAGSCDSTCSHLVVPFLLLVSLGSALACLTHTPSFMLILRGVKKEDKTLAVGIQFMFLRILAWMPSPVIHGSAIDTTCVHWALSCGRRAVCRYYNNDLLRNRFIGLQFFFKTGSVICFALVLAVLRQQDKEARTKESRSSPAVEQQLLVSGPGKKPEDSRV
Metric: IC50 (µM)
// units = µM; emit number, no label

## Task Look at this compound and give its reported IC50. COC(=O)C1=CO[C@@H](C)[C@@H]2CN3CC[C@@]4(C(=O)Nc5ccccc54)[C@@H]3C[C@H]12
## Result 45.4
